Data credit: paper PMC7179297

Experiment: Pharmacokinetic analysis in blood of mice from the efficacy study
Type: in vivo
Conditions: NOD-scid IL-2Rγnull, mouse, whole blood, po, M5717 3 mg/kg + pyronaridine 6 mg/kg single oral dose (entry 8), mean ± SD; read-out: M5717 exposure AUC0-inf
RECORDED_ENDPOINT: AUC(0-inf) (ng·h/mL)

{"MOLECULE": "O=C(NCCN1CCCC1)c1cc(-c2ccc(CN3CCOCC3)cc2)nc2ccc(F)cc12 [M5717]", "NUMBER": 1360}

###

Experiment: Pharmacokinetic analysis in blood of mice from the efficacy study
Type: in vivo
Conditions: NOD-scid IL-2Rγnull, mouse, whole blood, po, 12 mg/kg, M5717 12 mg/kg + pyronaridine 12 mg/kg single oral dose (entry 10), mean ± SD; read-out: M5717 exposure AUC0-inf
RECORDED_ENDPOINT: AUC(0-inf) (ng·h/mL)

{"MOLECULE": "O=C(NCCN1CCCC1)c1cc(-c2ccc(CN3CCOCC3)cc2)nc2ccc(F)cc12 [M5717]", "QUANTITY_UNIT": "ng·h/mL", "NUMBER": 6650}

###

Assay: Pharmacokinetic analysis in blood of mice from the efficacy study
Assay type: in vivo
Settings: NOD-scid IL-2Rγnull, mouse, whole blood, po, M5717 6 mg/kg + pyronaridine 36 mg/kg single oral dose (entry 11), mean ± SD; read-out: M5717 exposure AUC0-inf

{"SMILES_NOTATION": "O=C(NCCN1CCCC1)c1cc(-c2ccc(CN3CCOCC3)cc2)nc2ccc(F)cc12", "QUANTITY_UNIT": "ng·h/mL", "AUC(0-inf)": 2980}
